system: 15-hydroxyprostaglandin dehydrogenase [NAD(+)] (Homo sapiens, UniProt P15428)
Sequence (P15428 whole entry): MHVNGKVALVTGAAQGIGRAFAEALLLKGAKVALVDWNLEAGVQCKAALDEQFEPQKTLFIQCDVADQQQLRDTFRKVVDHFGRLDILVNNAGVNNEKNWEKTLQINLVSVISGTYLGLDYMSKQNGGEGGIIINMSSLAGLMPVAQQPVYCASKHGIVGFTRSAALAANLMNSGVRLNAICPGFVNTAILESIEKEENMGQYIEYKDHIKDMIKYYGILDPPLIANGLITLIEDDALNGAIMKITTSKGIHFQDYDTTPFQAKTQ
readout_label: pIC50
Reminder that pIC50 means the negative base-10 logarithm of the concentration expressed in mol/L.

Consider the compound shown here: `O=C1N=C(O)SC1=Cc1ccc(OCCC2CCCCC2)cc1` What is its recorded pIC50?
7.29

FYI, the data here is from BindingDB's records for doi:10.1021/jm200390u.
